Experiment: decreased DLD-1 cellular survival, CellTiter-Glo luminescent readout, NPC compound collection, primary HTS (AID 1117346)
Settings: DLD-1 viability, CellTiter-Glo luminescence; at 20 µM (top of the series)
readout_type: viability decrease (inhibition) (%)

> print(dat)
                                   compound                     readout.type  unit.string  readout.value
1         COC[C@@H](NC(C)=O)C(=O)NCc1ccccc1  viability decrease (inhibition)            %            9.6
2  CN1C(=O)COc2c(C(=O)NC3CN4CCC3CC4)cc(Cl)cc21 (stereo not drawn)  viability decrease (inhibition)            %           -7.8
3                                 Nc1ccccc1  viability decrease (inhibition)            %           26.8
